- Test system: rainbow trout Peroxisome Proliferator-activated Receptor alpha (PPARa), gene 110490141
- Experiment: ATG_rtPPARa_EcoTox2: Attagene TRANS-FACTORIAL EcoTox-2 HepG2 Assay for rainbow trout Peroxisome Proliferator-activated Receptor alpha (PPARa)
- Text: ATG_EcoTox2 is a cell-based, multiplexed assay created by modifying the existing Attagene TRANS-FACTORIAL system to include a panel of nuclear receptors from some or all the following species: human (Homo sapiens), african clawed frog (Xenopus laevis), rainbow trout (Oncorhynchus mykiss), japanese medaka (Oryzias latipes), and zebrafish (Danio rerio). […] ATG_rtPPARa_EcoTox2 is one of 29 assay components calculated in the ATG_EcoTox2 assay. […]
Inconclusive results are not listed. Active and inactive are the calls of the source. How the source made its calls: active means hit-call score of the fitted dose curve at least 0.9, where 1 is the maximum; inconclusive means response in the unintended direction; inactive means score below 0.9.
Labels: active, inactive

[
  {
    "Compound": "CN(CCOc1ccc(CC2SC(=O)NC2=O)cc1)c1ccccn1 (centres undefined)",
    "Assay Target": "rainbow trout Peroxisome Proliferator-activated Receptor alpha (PPARa), gene 110490141",
    "Class Name": "active"
  },
  {
    "Compound": "Cc1ccc(C)c(OCCCC(C)(C)C(=O)O)c1",
    "Assay Target": "rainbow trout Peroxisome Proliferator-activated Receptor alpha (PPARa), gene 110490141",
    "Class Name": "active"
  },
  {
    "Compound": "Cc1nc(-c2ccc(C(F)(F)F)cc2)sc1C(=O)NCc1ccc(OC(C)(C)C(=O)O)cc1",
    "Assay Target": "rainbow trout Peroxisome Proliferator-activated Receptor alpha (PPARa), gene 110490141",
    "Class Name": "active"
  },
  {
    "Compound": "CC(C)(Oc1ccc(Cl)cc1)C(=O)O",
    "Assay Target": "rainbow trout Peroxisome Proliferator-activated Receptor alpha (PPARa), gene 110490141",
    "Class Name": "inactive"
  }
]
